Target: T1, IKKβ(1-669) S177E/S181E homodimer, 6×His tag removed (human, UniProt O14920 1-669)
T1 sequence (looked up): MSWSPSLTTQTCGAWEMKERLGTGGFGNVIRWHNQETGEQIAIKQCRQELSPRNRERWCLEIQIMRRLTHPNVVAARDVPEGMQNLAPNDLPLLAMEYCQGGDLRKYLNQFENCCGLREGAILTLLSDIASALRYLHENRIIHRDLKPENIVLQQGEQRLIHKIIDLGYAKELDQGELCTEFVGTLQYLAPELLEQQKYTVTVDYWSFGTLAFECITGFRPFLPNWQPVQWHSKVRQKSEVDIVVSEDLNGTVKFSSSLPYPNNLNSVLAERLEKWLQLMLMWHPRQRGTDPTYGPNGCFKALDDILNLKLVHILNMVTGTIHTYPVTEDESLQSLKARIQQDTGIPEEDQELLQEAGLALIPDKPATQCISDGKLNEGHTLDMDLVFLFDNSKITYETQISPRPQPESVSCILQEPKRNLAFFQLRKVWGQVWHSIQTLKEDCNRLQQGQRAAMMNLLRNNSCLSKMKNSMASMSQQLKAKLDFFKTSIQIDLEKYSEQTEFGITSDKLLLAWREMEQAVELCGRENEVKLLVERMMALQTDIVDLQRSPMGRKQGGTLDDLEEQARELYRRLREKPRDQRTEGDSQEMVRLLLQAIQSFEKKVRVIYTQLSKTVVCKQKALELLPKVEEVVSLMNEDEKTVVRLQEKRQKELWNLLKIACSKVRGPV
Assay: ITC, 25 °C, synthetic peptide into IKK homodimer, 1:1 model
recorded.metric: Kd (nM)
Please state the figure in nM; there is no need to write the unit.

Kd in this record for EFTEDELPYDDLVFGGQRLTL (also called C308L IκBα pep; IkBα pep C308L) [synthetic IκBα pep C308L] : 2600

Value source: patent US20260265321A1
